Below, each entry is listed alongside its reported protein stability index.
B1: CAMK2A (parent)
chain: CIQQILEAVLHCHQMGVVHRDLKP

Variants of: B1
Test: protein stability index of a GFP-peptide fusion (GPS, HEK-293T) (PSI 1-6); higher = more stable;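 further: lentivirally expressed fusions sorted by FACS into six bins by GFP to DsRed ratio, PSI derived from sequencing read proportions per bin multiplied by bin number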
Conditions: c terminus: a fixed tail appended
Answer with the value's number alone.

CIQQILEAVLHCHQMGVVCRDLKP [H19C] ... 1.84
CIQQIIEAVLHCHQMGVVHRDLKP [L6I] ... 2.64
QIQQILEAVLHCHQMGVVHRDLKP [C1Q] ... 1.13
YIQQILEAVLHCHQMGVVHRDLKP [C1Y] ... 2.37
CIQQILEAVLHTHQMGVVHRDLKP [C12T] ... 2.74

Now look at this one.
Qu. Report protein stability index for CIQLILEAVLHCHQMGVVHRDLKP [Q4L]
Ans. 2.55
